Assignment: determine reported inhibition for the given molecules.
- test-target: Mitogen-activated protein kinase 1 (Homo sapiens);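 also: values are mean inhibition, from the GSK PKIS collection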
- measurement-parameters: at 1 µM
Include the unit right after the number.

# example entries with known answers
Item: `NCc1ccc(-n2c(-c3nonc3N)nc3cnccc32)cc1` Test system: Mitogen-activated protein kinase 1 (Homo sapiens) Read-out: inhibition Value: ? 8.32%

Item: `O=C1NC(=O)C(c2cccc(Cl)c2)=C1Nc1ccc(Cl)c(C(=O)O)c1` Test system: Mitogen-activated protein kinase 1 (Homo sapiens) Read-out: inhibition Value: ? 5.36%

// each listed molecule needs a value for inhibition
1. c1ccc(Oc2ccc(Nc3ncc(-c4ccccc4)o3)cc2)cc1
2. NS(=O)(=O)c1ccc(N/N=C2\C(=O)Nc3ccc(C(=O)NCCCn4ccnc4)cc32)cc1
3. NS(=O)(=O)c1ccc(N/N=C2\C(=O)Nc3ccc(-c4cnco4)cc32)cc1
4. Nc1nccc(-c2c(-c3ccc(F)cc3)ncn2C2CCC(O)CC2)n1 (stereo not given)
5. O=C(NCC1CC1)c1ccc(-c2cccc(C(=O)NC3CC3)c2)cc1
6. N#Cc1ccc(Oc2nccc(-c3c(-c4ccc(F)cc4)ncn3C3CCNCC3)n2)cc1
7. NS(=O)(=O)c1ccc(Nc2cc(-c3ccc(O)c(F)c3)n[nH]2)cc1
8. Fc1ccc(-c2ncn(C3CCNCC3)c2-c2ccnc(Oc3ccc(F)c(F)c3)n2)cc1

1. 6.11%
2. 38.5%
3. 7.04%
4. -2.72%
5. 1.43%
6. 6.51%
7. -4.87%
8. 6.35%

* * *

- test-target: Serine/threonine-protein kinase 26 (Homo sapiens) (UniProt Q9P289);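 also: mean inhibition of MST4 kinase activity, reported from the GSK PKIS inhibitor-set screening panel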
- Sequence (Q9P289 2-416 limits assumed): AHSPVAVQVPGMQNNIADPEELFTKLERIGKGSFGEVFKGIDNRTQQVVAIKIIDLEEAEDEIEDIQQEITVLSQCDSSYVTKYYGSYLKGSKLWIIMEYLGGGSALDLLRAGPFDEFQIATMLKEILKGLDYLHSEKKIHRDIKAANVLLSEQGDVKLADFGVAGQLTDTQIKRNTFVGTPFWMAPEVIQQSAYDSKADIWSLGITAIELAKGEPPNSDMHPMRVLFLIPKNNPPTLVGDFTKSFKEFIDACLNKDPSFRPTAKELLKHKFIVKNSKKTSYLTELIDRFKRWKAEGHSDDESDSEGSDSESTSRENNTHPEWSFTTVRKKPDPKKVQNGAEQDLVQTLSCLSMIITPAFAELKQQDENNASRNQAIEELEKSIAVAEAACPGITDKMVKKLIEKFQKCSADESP
- measurement-parameters: at 1 µM
parameter: inhibition
Include the unit right after the number.

# example entries with known answers
Looking for the measured inhibition of `COc1cc2ncn(-c3cc(OCc4cccs4)c(C(N)=O)s3)c2cc1OC` , can you help? 0.69%

Looking for the measured inhibition of `COc1cc2ncn(-c3cc(OCCc4ccccc4)c(C(N)=O)s3)c2cc1OC` , can you help? -2.27%

Looking for the measured inhibition of `Fc1ccc(-c2c(-c3ccncc3)nc3n2CCS3)cc1` , can you help? 1.66%

Looking for the measured inhibition of `CCN(CC)Cc1ccc(Nc2nccc(-c3cnn4ncccc34)n2)cc1` , can you help? 0.74%

Read the next record carefully.
Looking for the measured inhibition of `CCc1cccc(CC)c1/C=C/c1cncc(C(=O)NC)c1` , can you help? -4.27%

* * *

- Test system: Tyrosine-protein kinase ABL1 (Homo sapiens), P00519 [T315I]
- measurement-parameters: at 1 µM
Assignment: determine reported inhibition for the given compounds.
One number for each entry, in %.

Item: `C[C@@H](Oc1cc(-n2cnc3ccc(OCC4CCN(C)CC4)cc32)sc1C(N)=O)c1ccccc1Cl` Test system: Tyrosine-protein kinase ABL1 (Homo sapiens), P00519 [T315I] Read-out: inhibition Value: ? 9.89

Item: `COc1cccc(-n2cnc3c(N/N=C/c4ccncc4)ncnc32)c1` Test system: Tyrosine-protein kinase ABL1 (Homo sapiens), P00519 [T315I] Read-out: inhibition Value: ? 28.5

Item: `O=C1NC(=O)C(c2cccc(Cl)c2)=C1Nc1ccc(Cl)c(C(=O)O)c1` Test system: Tyrosine-protein kinase ABL1 (Homo sapiens), P00519 [T315I] Read-out: inhibition Value: ? 4.06

Item: `O=C(Nc1n[nH]c2cc(-c3ccccc3)ccc12)C1CC1` Test system: Tyrosine-protein kinase ABL1 (Homo sapiens), P00519 [T315I] Read-out: inhibition Value: ? 82.8

Further cases:
Item: `NC(=O)c1ccc(Oc2nccc(-c3c(-c4ccc(F)cc4)ncn3C3CCNCC3)n2)cc1` Test system: Tyrosine-protein kinase ABL1 (Homo sapiens), P00519 [T315I] Read-out: inhibition Value: ? 2.27
